test: AUC (infinity) in male Wistar rat at 100 mg/kg, po; type: ADME, organism-based; set-up: time infinity, dose 100 mg/kg, route oral; conditions: plasma
metric name: AUC(0-inf) (µg·h/mL)
Number only, in µg·h/mL; omit the unit.

## Task I'd like to know its AUC(0-inf). The compound in question is CC(C)(CCCCC(O)CCCCC(C)(C)C(=O)O)C(=O)O
## Result 1180

====

test system: Rattus norvegicus; experiment: Activity against high density lipoprotein cholesterol level in obese female Zucker rat serum after 2 weeks at 100 mg/kg (percent change from pre-treatment); type: functional
For each of the compounds below, state its Activity.
Number only, in %; omit the unit.

## Task I'd like to know its Activity. The compound in question is CC(C)(CO)CCCCNC(=O)NCCCCC(C)(C)CO
## Result 92

## Task I'd like to know its Activity. The compound in question is CC(C)(CO)CCCCC(=O)CCCCC(C)(C)CO
## Result 126

## Task I'd like to know its Activity. The compound in question is CC(C)(CO)CCCCC(O)CCCCC(C)(C)CO
## Result 222

## Task I'd like to know its Activity. The compound in question is CC(C)(CO)CCCC[S+]([O-])CCCCC(C)(C)CO
## Result 233

## Task I'd like to know its Activity. The compound in question is CC(C)(CO)CCCCOCCCCC(C)(C)CO
## Result 366

## Task I'd like to know its Activity. The compound in question is CC(C)(CCCCCC(=O)CCCCCC(C)(C)C(=O)O)C(=O)O
## Result 168

## Task I'd like to know its Activity. The compound in question is CC(C)(CO)CCCCCCCCCC(C)(C)CO
## Result 137

====

system: Rattus norvegicus; experiment: Activity against high density lipoprotein cholesterol level in obese female Zucker rat serum after 2 weeks at 100 mg/kg (percent change from pre-treatment); format: functional
metric name: Activity
Your answer should be a number followed by the unit of measure.

## Task Activity of CC(C)(CO)CCCCC(CO)CCCCC(C)(C)CO on Rattus norvegicus?
## Result -2%

## Task Activity of CC(C)(CCCCC(O)CCCCC(C)(C)C(=O)O)C(=O)O on Rattus norvegicus?
## Result 50%

## Task Activity of CC(C)(CO)CCCCNC(=O)OCCCCC(C)(C)CO on Rattus norvegicus?
## Result 65%

## Task Activity of CC(C)(CO)CCCCS(=O)(=O)CCCCC(C)(C)CO on Rattus norvegicus?
## Result -13%

## Task Activity of CC(CO)(CCCSCCCC(C)(CO)c1ccccc1)c1ccccc1 (stereo not drawn) on Rattus norvegicus?
## Result 2%

## Task Activity of CC(C)(CO)CCCCOC(=O)CCCCC(C)(C)CO on Rattus norvegicus?
## Result 23%

## Task Activity of CC(C)(CO)CCC[S+]([O-])CCCC(C)(C)CO on Rattus norvegicus?
## Result 93%

## Task Activity of CC(C)(CO)CCCCSCCCCC(C)(C)CO on Rattus norvegicus?
## Result 153%

====

test: Half life in male Wistar rat at 100 mg/kg, po; type: ADME, organism-based; design: dose 100 mg/kg, route oral; conditions: in vivo
metric name: half-life (h)
Number only, in h; omit the unit.

## Task I'd like to know its half-life. The compound in question is CC(C)(CCCCC(O)CCCCC(C)(C)C(=O)O)C(=O)O
## Result 16.9

====

For each of the compounds below, state its Activity.
tested on: Rattus norvegicus; assay: Activity against triglyceride level in obese female Zucker rat serum after 1 week at 100 mg/kg (percent change from pre-treatment); format: functional
Number only, in %; omit the unit.

## Task I'd like to know its Activity. The compound in question is CC(C)(CO)CCCCCCCCCC(C)(C)CO
## Result -83

## Task I'd like to know its Activity. The compound in question is CC(C)(CO)CCCCC(=O)CCCCC(C)(C)CO
## Result -54

## Task I'd like to know its Activity. The compound in question is CC(C)(CO)CCCCNC(=O)NCCCCC(C)(C)CO
## Result -42

## Task I'd like to know its Activity. The compound in question is CC(C)(CO)CCCCOC(=O)CCCCC(C)(C)CO
## Result -20

## Task I'd like to know its Activity. The compound in question is CC(C)(CO)CCCCC(CO)CCCCC(C)(C)CO
## Result -52

## Task I'd like to know its Activity. The compound in question is CC(C)(CCCCCC(=O)CCCCCC(C)(C)C(=O)O)C(=O)O
## Result -93

## Task I'd like to know its Activity. The compound in question is CC(C)(CCCCC(O)CCCCC(C)(C)C(=O)O)C(=O)O
## Result -32

## Task I'd like to know its Activity. The compound in question is CC(C)(CO)CCCCC(O)CCCCC(C)(C)CO
## Result -70

====

assay: Cmax in male Wistar rat at 100 mg/kg, po; type: ADME, organism-based; parameters: dose 100 mg/kg, route oral; conditions: in vivo
metric name: Cmax (ng/mL)
Number only, in ng/mL; omit the unit.

## Task I'd like to know its Cmax. The molecule in question is CC(C)(CCCCC(O)CCCCC(C)(C)C(=O)O)C(=O)O
## Result 40600

====

tested on: Hepatocyte; assay: Inhibition of lipid synthesis in primary rat hepatocytes by incorporation radiolabeled acetate into cellular lipids; format: functional, cell-based, Sprague-Dawley; details: Rattus norvegicus, Sprague-Dawley, Hepatocyte; read-out: IC50
Please use rule met for IC50 under 9 µM and rule not met for everything else, ties included.

## Task Strictly below 9 µM in IC50? CC(C)(CO)CCCCNC(=O)NCCCCC(C)(C)CO
## Result rule met

## Task Strictly below 9 µM in IC50? CC(C)(CO)CCCCC(O)CCCCC(C)(C)CO
## Result rule met

## Task Strictly below 9 µM in IC50? CC(C)(CO)CCCCSCCCCC(C)(C)CO
## Result rule not met

## Task Strictly below 9 µM in IC50? CC(C)(CCCCC(O)CCCCC(C)(C)C(=O)O)C(=O)O
## Result rule met

## Task Strictly below 9 µM in IC50? CC(CCCCSCCCCC(C)(C(=O)O)c1ccccc1)(C(=O)O)c1ccccc1 (stereo unspecified)
## Result rule not met

## Task Strictly below 9 µM in IC50? CC(C)(CO)CCCCOC(=O)CCCCC(C)(C)CO
## Result rule not met

## Task Strictly below 9 µM in IC50? CC(C)(CO)CCCSCCCC(C)(C)CO
## Result rule not met

## Task Strictly below 9 µM in IC50? CC(C)(CO)CCCCN(O)CCCCC(C)(C)CO
## Result rule not met

## Task Strictly below 9 µM in IC50? CC(CO)(CCCSCCCC(C)(CO)c1ccccc1)c1ccccc1 (stereo unspecified)
## Result rule not met

## Task Strictly below 9 µM in IC50? CC(C)(CO)CCCCNC(=O)OCCCCC(C)(C)CO
## Result rule met

====

test system: Hepatocyte; experiment: Inhibition of lipid synthesis in primary rat hepatocytes by incorporation radiolabeled acetate into cellular lipids; format: functional, cell-based, Sprague-Dawley; conditions: Rattus norvegicus, Sprague-Dawley, Hepatocyte; read-out: IC50
For each of the compounds below, state its pIC50.
In simple prose, pIC50 is minus the logarithm base ten of a concentration in moles per litre.

## Task I'd like to know its pIC50. The compound in question is CC(C)(CO)CCCCC(=O)CCCCC(C)(C)CO
## Result 5.82

## Task I'd like to know its pIC50. The compound in question is CC(CO)(CCCC[S+]([O-])CCCCC(C)(CO)c1ccccc1)c1ccccc1 (stereo unspecified)
## Result 4.09

## Task I'd like to know its pIC50. The compound in question is CC(=O)C(CCCCC(C)(C)CO)CCCCC(C)(C)CO
## Result 4.34

## Task I'd like to know its pIC50. The compound in question is CC(C)(CO)CCCCOCCCCC(C)(C)CO
## Result 4.97

## Task I'd like to know its pIC50. The compound in question is CC(CO)(CCCCSCCCCC(C)(CO)c1ccccc1)c1ccccc1 (stereo unspecified)
## Result 4.19

## Task I'd like to know its pIC50. The compound in question is CC(C)(CO)CCCCC(CO)CCCCC(C)(C)CO
## Result 4.82

====

For each of the compounds below, state its Activity.
tested on: Rattus norvegicus; test: Activity against triglyceride level in obese female Zucker rat serum after 2 weeks at 30 mg/kg (percent change from pre-treatment); type: functional
Your answer should be a number followed by the unit of measure.

## Task I'd like to know its Activity. The compound in question is CC(C)(CO)CCCCN(O)CCCCC(C)(C)CO
## Result 13%

## Task I'd like to know its Activity. The compound in question is CC(C)(CO)CCCSCCCC(C)(C)CO
## Result -34%

## Task I'd like to know its Activity. The compound in question is CC(=O)C(CCCCC(C)(C)CO)CCCCC(C)(C)CO
## Result 22%

## Task I'd like to know its Activity. The compound in question is CC(C)(CO)CCCCNC(=O)CCCCC(C)(C)CO
## Result -10%
